Molecular target: PSMA-expressing C4-2 cells (Homo sapiens)
Construct: PSMA-expressing C4-2 cells (ATCC, Cat. No. CRL-3314) were cultured in RPMI-1640; host or cells: C4-2 cells
Sequence (Q04609 whole entry): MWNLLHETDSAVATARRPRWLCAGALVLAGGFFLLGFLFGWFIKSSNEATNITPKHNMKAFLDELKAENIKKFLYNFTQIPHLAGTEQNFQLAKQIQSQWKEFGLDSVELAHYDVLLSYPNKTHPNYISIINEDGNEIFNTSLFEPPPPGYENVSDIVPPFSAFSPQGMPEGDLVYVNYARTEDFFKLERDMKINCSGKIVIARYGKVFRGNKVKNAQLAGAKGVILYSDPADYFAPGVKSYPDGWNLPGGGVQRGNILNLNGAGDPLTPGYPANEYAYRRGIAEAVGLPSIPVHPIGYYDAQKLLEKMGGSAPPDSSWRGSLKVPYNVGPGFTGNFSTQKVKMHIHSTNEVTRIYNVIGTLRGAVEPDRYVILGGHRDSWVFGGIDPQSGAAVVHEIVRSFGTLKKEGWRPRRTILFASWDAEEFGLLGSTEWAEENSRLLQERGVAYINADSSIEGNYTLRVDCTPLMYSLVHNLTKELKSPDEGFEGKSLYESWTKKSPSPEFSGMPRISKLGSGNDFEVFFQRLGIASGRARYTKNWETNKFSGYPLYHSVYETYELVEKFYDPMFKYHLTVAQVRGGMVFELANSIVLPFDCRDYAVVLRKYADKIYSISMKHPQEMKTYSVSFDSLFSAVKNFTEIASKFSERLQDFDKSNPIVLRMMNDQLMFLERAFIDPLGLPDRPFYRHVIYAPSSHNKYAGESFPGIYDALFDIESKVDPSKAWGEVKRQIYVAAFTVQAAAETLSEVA
Assay: FACS binding assay (competition with 50 nM PSM-0183)
Conditions: FACS binding, C4-2 cells, category; read-out: pIC50 [C4-2] CAT (converted)
Numbered stars: 1 amine (or outer) side, 2 acyl side, 3 side chain; on linkers, the order of the positions; unused ones are H or OH. Bridge positions count the residues as written; N and C are the ends. Square brackets hold non-standard residues; d marks the D form. Peptide text beside a SMILES is read from it. * marks the point of attachment. X11 = O=C(CCCC[C@@H]1SC[C@@H]2NC(=O)N[C@@H]21)NCCCOCCOCCOCCCNC(=O)CCC(=O)NCCCOCCOCCOCCCN*; DOTA = O=C(O)CN1CCN(CC(=O)O)CCN(CC(=O)*)CCN(CC(=O)O)CC1; X10 = NC(=O)CN1CCN(CC(=O)O)CCN(CC(=O)*)CCN(CC(=O)O)CC1; Phe(4-Cl) = N[C@@H](Cc1ccc(Cl)cc1)C(=O)O; Arg(Me) = CNC(=N)NCCC[C@H](N)C(=O)O; X1 = O=C(CC1CCN([*:1])CC1)[*:2]; Lys(Me) = CNCCCC[C@H](N)C(=O)O; Suc = O=C(CCC(=O)[*:2])[*:1]; Tle = CC(C)(C)[C@H](N)C(=O)O; Nle = CCCC[C@H](N)C(=O)O; Aib = CC(C)(N)C(=O)O
Some compounds, each annotated with its measured IC50.

Examples from the recorded data:
{"compound": "CCCC[C@@H]1NC(=O)[C@@H](NC(=O)[C@H](Cc2ccc(Cl)cc2)NC(=O)C(C)(C)NC(=O)[C@@H](NC(C)=O)[C@@H](C)O)CSSC[C@@H](C(=O)N[C@H](C(=O)N[C@H](C(N)=O)[C@@H](C)O)C(C)(C)C)NC(=O)[C@H](CC(N)=O)NC(=O)C(C)(C)NC(=O)[C@H](CCCNC(=N)NC(C)=O)NC1=O [PSM-0570] (Ac-T[Aib][Phe(4-Cl)]C[Nle]R(Ac)[Aib]NC[Tle]T-NH2; disulfide 4-9)", "target": "PSMA-expressing C4-2 cells (Homo sapiens)", "IC50": "< 200 nM"}
{"compound": "CNCCCC[C@@H]1NC(=O)[C@@H](NC(=O)[C@H](Cc2ccc(Cl)cc2)NC(=O)C(C)(C)NC(=O)[C@@H](NC(=O)CC2CCN(C(=O)CN3CCN(CC(=O)O)CCN(CC(N)=O)CCN(CC(=O)O)CC3)CC2)[C@@H](C)O)CSSC[C@@H](C(=O)N[C@H](C(=O)N[C@H](C(N)=O)[C@@H](C)O)C(C)(C)C)NC(=O)[C@H](CC(N)=O)NC(=O)C(C)(C)NC(=O)[C@H](CCCNC(=N)NC)NC1=O [PSM-0601] (X10-[X1]T[Aib][Phe(4-Cl)]C[Lys(Me)][Arg(Me)][Aib]NC[Tle]T-NH2; disulfide 5-10)", "target": "PSMA-expressing C4-2 cells (Homo sapiens)", "IC50": "< 200 nM"}
{"compound": "CC(=O)NC(C)(C)C(=O)N[C@@H](Cc1ccc(Cl)cc1)C(=O)N[C@H]1CSSC[C@@H](C(=O)N[C@H](C(=O)N[C@H](C(N)=O)[C@@H](C)O)C(C)(C)C)NC(=O)[C@H](CC(N)=O)NC(=O)C(C)(C)NC(=O)[C@H](CCCNC(=N)N)NC(=O)[C@H](CCCCN)NC1=O [PSM-0559] (Ac-[Aib][Phe(4-Cl)]CKR[Aib]NC[Tle]T-NH2; disulfide 3-8)", "target": "PSMA-expressing C4-2 cells (Homo sapiens)", "IC50": "< 200 nM"}

query: Give IC50 for C[C@@H](O)[C@H](NC(=O)[C@@H](NC(=O)[C@@H]1CSSC[C@H](NC(=O)[C@H](Cc2ccc(Cl)cc2)NC(=O)C(C)(C)NC(=O)[C@@H](NC(=O)CCC(=O)NCCCOCCOCCOCCCNC(=O)CCC(=O)NCCCOCCOCCOCCCNC(=O)CCCC[C@@H]2SC[C@@H]3NC(=O)N[C@@H]32)[C@@H](C)O)C(=O)N[C@@H](CCCCN)C(=O)N[C@@H](CCCNC(=N)N)C(=O)NC(C)(C)C(=O)N[C@@H](CC(N)=O)C(=O)N1)C(C)(C)C)C(N)=O [PSM-0575] ({X11-Suc}-T[Aib][Phe(4-Cl)]CKR[Aib]NC[Tle]T-NH2; disulfide 4-9)
result: < 200 nM

query: Give IC50 for CNCCCC[C@@H]1NC(=O)[C@@H](NC(=O)[C@H](Cc2ccc(Cl)cc2)NC(=O)C(C)(C)NC(=O)[C@@H](NC(=O)CC2CCN(C(=O)CN3CCN(CC(=O)O)CCN(CC(=O)O)CCN(CC(=O)O)CC3)CC2)[C@@H](C)O)CSSC[C@@H](C(=O)O)NC(=O)[C@H](CC(N)=O)NC(=O)C(C)(C)NC(=O)[C@H](CCCNC(=N)NC)NC1=O [PSM-0594] ({DOTA}-[X1]T[Aib][Phe(4-Cl)]C[Lys(Me)][Arg(Me)][Aib]NC-OH; disulfide 5-10)
result: 1260 to 3160 nM
